Values compiled from the supplement of paper PMC11061612.

# Tested on: SKG-IIIa (Cervical Carcinoma)
# PROTOCOL_DESCRIPTION: Bliss excess, mean over the matrix (fraction); higher = more synergy;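 note: after 72 h of two-drug dosing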
Give yes (1) when the value for Bliss excess is at least -0.03. Give no (0) when it is less.

Request: Answer whether Bliss excess of CC1(C)CCC(CN2CCN(c3ccc(C(=O)NS(=O)(=O)c4ccc(NCC5CCOCC5)c([N+](=O)[O-])c4)c(Oc4cnc5[nH]ccc5c4)c3)CC2)=C(c2ccc(Cl)cc2)C1 [Venetoclax] + C[C@@H](Nc1cc(F)cc(F)c1)c1cc(C(=O)N(C)C)cc2c(=O)cc(N3CCOCC3)oc12 [AZD8186] (first compound max 1 µM, 7x7, partner max 3 µM) is greater than or equal to -0.03.
Response: yes (1)

Request: Answer whether Bliss excess of CN(C)CCCOc1ccc(-c2ccc3ncc4c(c3c2)n(C2CCOCC2)c(=O)n4C)cn1 [AZD0156] + CCN(CCO)CCCOc1ccc2c(Nc3cc(CC(=O)Nc4cccc(F)c4)[nH]n3)ncnc2c1 [AZD2811] (first compound max 1 µM, 7x7, partner max 1 µM) is greater than or equal to -0.03.
Response: no (0)

Request: Answer whether Bliss excess of CCN(CCO)CCCOc1ccc2c(Nc3cc(CC(=O)Nc4cccc(F)c4)[nH]n3)ncnc2c1 [AZD2811] + C=CCn1c(=O)c2cnc(Nc3ccc(N4CCN(C)CC4)cc3)nc2n1-c1cccc(C(C)(C)O)n1 [AZD1775] (first compound max 1 µM, partner max 1 µM) is greater than or equal to -0.03.
Response: yes (1)

* * *

# Test system: NCI-H3118 (Head and Neck Carcinoma)
# PROTOCOL_DESCRIPTION: Bliss excess, mean over the matrix (fraction); higher = more synergy
ATTRIBUTE_MEASURED: Bliss excess
Output spec: single numeric token, no unit.

| COMPOUND | Bliss excess |
| --- | --- |
| CC1(C)CCC(CN2CCN(c3ccc(C(=O)NS(=O)(=O)c4ccc(NCC5CCOCC5)c([N+](=O)[O-])c4)c(Oc4cnc5[nH]ccc5c4)c3)CC2)=C(c2ccc(Cl)cc2)C1 [Venetoclax] + CN(C)CCCOc1ccc(-c2ccc3ncc4c(c3c2)n(C2CCOCC2)c(=O)n4C)cn1 [AZD0156] (first compound max 1 µM, 7x7, partner max 1 µM) | 0.005 |
| COc1cccc(OCCCN)c1-c1cc(Nc2cnc(C#N)cn2)n[nH]1 [Prexasertib] + C[C@@H]1COCCN1C2=NC(=NC(=C2)C3(CC3)[S@](=N)(=O)C)C4=C5C=CNC5=NC=C4 [AZD6738] (first compound max 1 µM, 7x7, partner max 10 µM) | -0.032 |
| Cc1cc2ncnn2cc1Nc1ncc2c(n1)n(C1CCOCC1)c(=O)n2C [AZD7648] + C=CCn1c(=O)c2cnc(Nc3ccc(N4CCN(C)CC4)cc3)nc2n1-c1cccc(C(C)(C)O)n1 [AZD1775] (first compound max 10 µM, partner max 1 µM) | -0.0219 |
| C[C@@H](Oc1cc(-c2cnn(C3CCNCC3)c2)cnc1N)c1c(Cl)ccc(F)c1Cl [Crizotinib] + Cn1cnc2c(F)c(Nc3ccc(Br)cc3Cl)c(C(=O)NOCCO)cc21 [Selumetinib] (first compound max 10 µM, 7x7, partner max 10 µM) | -0.0222 |
| Cc1c2c(nn1C)CSCc1cc(n(C)n1)CSc1cc(c3ccccc3c1)OCCCc1c(C(=O)O)n(C)c3c-2c(Cl)ccc13 [AZD5991] + CC1(C)CCC(CN2CCN(c3ccc(C(=O)NS(=O)(=O)c4ccc(NCC5CCOCC5)c([N+](=O)[O-])c4)c(Oc4cnc5[nH]ccc5c4)c3)CC2)=C(c2ccc(Cl)cc2)C1 [Venetoclax] (first compound max 1 µM, 7x7, partner max 1 µM) | -0.0163 |
| Cc1c2c(nn1C)CSCc1cc(n(C)n1)CSc1cc(c3ccccc3c1)OCCCc1c(C(=O)O)n(C)c3c-2c(Cl)ccc13 [AZD5991] + Cc1cc2ncnn2cc1Nc1ncc2c(n1)n(C1CCOCC1)c(=O)n2C [AZD7648] (first compound max 1 µM, 7x7, partner max 10 µM) | -0.0707 |

Request: Look at this compound and give its reported Bliss excess. Cc1c2c(nn1C)CSCc1cc(n(C)n1)CSc1cc(c3ccccc3c1)OCCCc1c(C(=O)O)n(C)c3c-2c(Cl)ccc13 [AZD5991] + C[C@@H](Nc1cc(F)cc(F)c1)c1cc(C(=O)N(C)C)cc2c(=O)cc(N3CCOCC3)oc12 [AZD8186] (first compound max 1 µM, 7x7, partner max 3 µM)
Response: -0.0161
